Taken from patent US11535622B2.

target: cloned hERG potassium channel encoded by the KCNH2 gene (Homo sapiens (Human)); assay: Automated hERG assay (FASTPatch, QPatch); assay type: cell-based; settings: HEK293T cells, patch clamp, 0.3-30 uM
Sequence (Q12809 whole entry): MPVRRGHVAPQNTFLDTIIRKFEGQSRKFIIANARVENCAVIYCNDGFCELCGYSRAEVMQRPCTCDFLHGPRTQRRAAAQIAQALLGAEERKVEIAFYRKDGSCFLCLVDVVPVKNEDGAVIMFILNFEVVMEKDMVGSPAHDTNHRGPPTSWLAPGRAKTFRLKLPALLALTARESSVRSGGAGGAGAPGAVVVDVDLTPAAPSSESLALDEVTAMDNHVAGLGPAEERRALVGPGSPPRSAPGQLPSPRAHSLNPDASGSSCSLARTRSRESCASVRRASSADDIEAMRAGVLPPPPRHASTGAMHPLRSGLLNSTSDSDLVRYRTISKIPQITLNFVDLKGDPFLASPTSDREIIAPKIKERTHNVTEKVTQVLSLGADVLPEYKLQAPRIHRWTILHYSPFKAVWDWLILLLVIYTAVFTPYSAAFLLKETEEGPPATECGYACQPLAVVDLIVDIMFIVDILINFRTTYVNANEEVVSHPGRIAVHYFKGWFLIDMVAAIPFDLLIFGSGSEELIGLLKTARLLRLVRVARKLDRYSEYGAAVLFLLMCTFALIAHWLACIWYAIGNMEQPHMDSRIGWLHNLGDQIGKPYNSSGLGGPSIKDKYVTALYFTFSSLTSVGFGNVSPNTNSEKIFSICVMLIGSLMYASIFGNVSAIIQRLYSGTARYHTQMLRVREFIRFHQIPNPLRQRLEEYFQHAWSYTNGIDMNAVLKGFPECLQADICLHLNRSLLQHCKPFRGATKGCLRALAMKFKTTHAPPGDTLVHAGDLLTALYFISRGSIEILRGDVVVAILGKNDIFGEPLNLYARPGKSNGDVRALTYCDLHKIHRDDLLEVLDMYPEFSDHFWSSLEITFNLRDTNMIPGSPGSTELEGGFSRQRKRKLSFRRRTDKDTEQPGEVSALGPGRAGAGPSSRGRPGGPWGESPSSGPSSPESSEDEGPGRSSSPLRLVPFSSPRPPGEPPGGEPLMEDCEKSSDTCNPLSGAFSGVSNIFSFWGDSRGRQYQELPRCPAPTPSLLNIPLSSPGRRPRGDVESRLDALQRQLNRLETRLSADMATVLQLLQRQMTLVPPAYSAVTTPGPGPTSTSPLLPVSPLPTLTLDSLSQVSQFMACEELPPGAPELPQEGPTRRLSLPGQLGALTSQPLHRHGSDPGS
pIC50: −log10 of the molar value.

Compound | pIC50
CC(C)Nc1cc(-c2ccc3cc(C#N)cnn23)ncc1C(=O)NC[C@@H](F)C(C)(C)O [A, reference compound] | 5.41
CC(C)(O)[C@H](F)CNC(=O)c1cnc(-c2ccc3cc(C#N)cnn23)cc1NCCCC#N | 5.46

----------
List of Human Hep. Stability values.
system: human cryopreserved hepatocytes; assay: Metabolic stability in cryopreserved hepatocytes; format: in vitro ADME; settings: 1 μM test compound

Molecule | Human Hep. Stability
CC(C)Nc1cc(-c2ccc3cc(C#N)cnn23)ncc1C(=O)NC[C@@H](F)C(C)(C)O [A, reference compound] | 3.33 mL/min/kg
CC(C)(O)[C@H](F)CNC(=O)c1cnc(-c2ccc3cc(C#N)cnn23)cc1NCC#N | 2.17 mL/min/kg
CC(C)(O)[C@H](F)CNC(=O)c1cnc(-c2ccc3cc(C#N)cnn23)cc1NC1(C#N)CC1 | 3.67 mL/min/kg
C[C@H](C#N)Nc1cc(-c2ccc3cc(C#N)cnn23)ncc1C(=O)NC[C@@H](F)C(C)(C)O | 1.3 mL/min/kg
CC(C)(O)[C@H](F)CNC(=O)c1cnc(-c2ccc3cc(C#N)cnn23)cc1NCCCC#N | 2.33 mL/min/kg
CC(C)(C#N)Nc1cc(-c2ccc3cc(C#N)cnn23)ncc1C(=O)NC[C@@H](F)C(C)(C)O | 4.33 mL/min/kg
CNc1cc(-c2ccc3cc(C#N)cnn23)ncc1C(=O)NC[C@@H](F)C(C)(C)O | 0.83 mL/min/kg
